The measured values listed here are drawn from the antibiotic and cytotoxicity screens of Wong et al. (2023).

System: HepG2
assay: cytotoxicity call (relative viability < 0.9)
conditions used: 10 µM
Hit rate of the full screen: of about 39,000 compounds, about 3,300 (8.5%) were called active. The entries come from a sample that favours actives as a whole.
I would appreciate it if you answered using one of these outcomes: True for active, False for inactive

> print(dat)
                                   compound  class.label
1  COC1(NC(=O)CSCC#N)C(=O)N2C(C(=O)[O-])=C(CSc3nnnn3C)CSC21.[Na+] (stereo not given)        False
2  CC(C)N1C[C@@H](CNCc2ccc(Oc3ccccc3)cc2)Oc2c(NC(=O)c3ccncc3)cccc2C1=O        False
3  COc1cccc(-c2cnc3c(c2)C(=O)N([C@H](C)CO)C[C@H](C)[C@H](CN(C)S(=O)(=O)c2cccc(OC)c2)O3)c1        False
4  C[C@H]1CN([C@@H](C)CO)C(=O)c2cc(NC(=O)Nc3cccc4ccccc34)ccc2O[C@H]1CN(C)CC1CCCCC1         True
5  CC(=O)Oc1cc(OC(C)=O)c2c(c1)O[C@H](c1ccc(OC(C)=O)c(OC(C)=O)c1)[C@H](OC(C)=O)C2        False

Incoming: Field: outcome | Entry: COc1cccc(S(=O)(=O)N(C)C[C@@H]2Oc3ncc(-c4ccccc4)cc3C(=O)N([C@H](C)CO)C[C@@H]2C)c1
Outgoing: False

Incoming: Could you please tell me the result logged for COc1cccc(S(=O)(=O)N(C)C[C@H]2Oc3ncc(C#CCC(C)C)cc3C(=O)N([C@H](C)CO)C[C@@H]2C)c1 in this assay?
Outgoing: True

Incoming: Which outcome did this test record for the compound CO[C@@H]1CN(C)C(=O)c2cc(NC(=O)Nc3ccccc3)ccc2OC[C@@H](C)N(C(=O)CN(C)C)C[C@H]1C ?
Outgoing: False

Incoming: What did this assay record as the result for C[C@@H]1CN([C@@H](C)CO)C(=O)c2cc(NC(=O)Nc3cccc4ccccc34)ccc2O[C@H]1CN(C)CC1CCCCC1 ?
Outgoing: False

Incoming: Record request — test call for C[C@H]1CN([C@@H](C)CO)C(=O)c2cccc(NS(C)(=O)=O)c2O[C@H]1CN(C)S(=O)(=O)c1cccs1
Outgoing: False

Incoming: Entry C[C@H](CO)N1C[C@H](C)[C@@H](CN(C)CC2CCCCC2)Oc2ccc(NC(=O)Nc3cccc4ccccc34)cc2C1=O : call = ?
Outgoing: False

Incoming: How did this test come out for C[C@H]1CN([C@@H](C)CO)C(=O)c2cc(NC(=O)Nc3cccc4ccccc34)ccc2O[C@@H]1CN(C)CC1CCCCC1 ?
Outgoing: False

Incoming: GET /call?item= Cc1ccc(S(=O)(=O)N(C)C[C@H]2Oc3ncc(C#CCC(C)C)cc3C(=O)N([C@@H](C)CO)C[C@H]2C)cc1 returns the recorded outcome of this test.
Outgoing: True

Incoming: Please state the recorded outcome for this compound: Cc1ccc(S(=O)(=O)N(C)C[C@@H]2Oc3ncc(C#CCC(C)C)cc3C(=O)N([C@@H](C)CO)C[C@H]2C)cc1
Outgoing: True

Incoming: Look up the recorded call for C[C@H](CO)N1C[C@H](C)[C@H](CN(C)CC2CCCCC2)Oc2ccc(NC(=O)Nc3cccc4ccccc34)cc2C1=O in this test.
Outgoing: False
